B1: PKD2L1 (parent)
chain: YSGGGYYLDLPGSRQGSAEALRAL

variants of: B1; assay: protein stability index of a GFP-peptide fusion (GPS, HEK-293T) (PSI 1-6); higher = more stable; settings: c terminus: a fixed tail appended;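 further: lentivirally expressed fusions sorted by FACS into six bins by GFP to DsRed ratio, PSI derived from sequencing read proportions per bin multiplied by bin number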
Decision: protein stability index >= 2 yields label 1, all other cases yield label 0.

Enquiry: In plain terms: is recorded protein stability index at least 2 for YSGGGYSLDLPGSRQGSAEALRAL [Y7S] ?
Return: label 1

Enquiry: Check if protein stability index >= 2 (inclusive). Item: YSGGGYYLDLPGMRQGSAEALRAL [S13M]
Return: label 1

Enquiry: Could you verify whether the entry YSGLGYYLDLPGSRQGSAEALRAL [G4L] shows protein stability index of no less than 2?
Return: label 1

Enquiry: Does the variant YSGGGYYLDLPGSRQGSAVALRAL [E19V] have recorded protein stability index that is 2 or more?
Return: label 0

Enquiry: Does the variant YSGMGYYLDLPGSRQGSAEALRAL [G4M] have recorded protein stability index that is 2 or more?
Return: label 1

Enquiry: Say whether YSGGGYYLDLPGSRQGSAEALRAP [L24P] shows protein stability index of 2 or more.
Return: label 1

Enquiry: Test whether the variant YMGGGYYLDLPGSRQGSAEALRAL [S2M] records protein stability index of 2 or higher.
Return: label 0

Enquiry: Answer whether protein stability index of YSGGGYYLDLPGSRQGSAEALQAL [R22Q] is greater than or equal to 2.
Return: label 0

Enquiry: Can YYGGGYYLDLPGSRQGSAEALRAL [S2Y] be said to have protein stability index at or above 2?
Return: label 1

Enquiry: Would you say YSGGKYYLDLPGSRQGSAEALRAL [G5K] shows protein stability index at minimum 2?
Return: label 1

Enquiry: # bool: protein stability index of YSGGGYYLDLPGSRQGSALALRAL [E19L] >= 2
Return: label 0

Enquiry: protein stability index >= 2 for YSGGGYYLDLPGSRQLSAEALRAL [G16L] ?
Return: label 0

Enquiry: Answer whether protein stability index of YSGGGYYLDLPGSRQGSAEALAAL [R22A] is greater than or equal to 2.
Return: label 1

Enquiry: Is protein stability index at least 2? Consider YSGGGYYLDLPGVRQGSAEALRAL [S13V]
Return: label 1

Enquiry: hey, is protein stability index for this one >= 2? YSGGGYYLDLPGSRQGSAEALRAE [L24E]
Return: label 0

Enquiry: Can YSEGGYYLDLPGSRQGSAEALRAL [G3E] be said to have protein stability index at or above 2?
Return: label 1

Enquiry: Does the reported protein stability index for YSGGGYYLDLPGSRVGSAEALRAL [Q15V] fall at or above the 2 mark?
Return: label 1

Enquiry: Quick check, protein stability index >= 2? YSGGGYYLDLPGSRQGQAEALRAL [S17Q]
Return: label 1

Enquiry: Is the recorded value of protein stability index equal to or greater than 2 for this variant? YSGGGYYLDLPGSRQGSGEALRAL [A18G]
Return: label 0

Enquiry: Assess whether reported protein stability index for YSGGGYYLDLPGSRQGSAIALRAL [E19I] sits at 2 or higher.
Return: label 0

Enquiry: Quick check, protein stability index >= 2? YSGGGYYLDLPGSRQGIAEALRAL [S17I]
Return: label 0

Enquiry: Check this variant for protein stability index at or above 2: YSGGGYYLDLPGSRQGSAEALSAL [R22S]
Return: label 1

Enquiry: Is it the case that YSGGGYYLDLPGSRCGSAEALRAL [Q15C] has protein stability index reaching or exceeding 2?
Return: label 1

Enquiry: Quick check: does YSGVGYYLDLPGSRQGSAEALRAL [G4V] have protein stability index greater than or equal to 2?
Return: label 1

Enquiry: Could you tell me if the measured protein stability index of YSGGGYYLDLPGSRQGSASALRAL [E19S] reaches 2 or more?
Return: label 0

Enquiry: Could you please find out whether YSGGGYYLDLPGSRQGSDEALRAL [A18D] has protein stability index that meets 2 or exceeds it?
Return: label 1

Enquiry: State whether the measured protein stability index reaches 2, counting equality as reaching it, for YSGGGYYLDLPGSRQGSAEAVRAL [L21V]
Return: label 0

Enquiry: Reported protein stability index at or above 2? YSGGGYYLDTPGSRQGSAEALRAL [L10T]
Return: label 1

Enquiry: Does protein stability index meet or surpass 2 for YSGGGDYLDLPGSRQGSAEALRAL [Y6D] ?
Return: label 1

Enquiry: Could you please find out whether YSGRGYYLDLPGSRQGSAEALRAL [G4R] has protein stability index that meets 2 or exceeds it?
Return: label 1

Enquiry: For this variant, is measured protein stability index 2 or higher? YSGGGLYLDLPGSRQGSAEALRAL [Y6L]
Return: label 0

Enquiry: Reported protein stability index at or above 2? YSGGGIYLDLPGSRQGSAEALRAL [Y6I]
Return: label 0

Enquiry: hey, is protein stability index for this one >= 2? YSGGGYYLDLPGSRFGSAEALRAL [Q15F]
Return: label 0

Enquiry: Exam item: decide whether the reported protein stability index for YSGGGVYLDLPGSRQGSAEALRAL [Y6V] is at least 2.
Return: label 1

Enquiry: Has YSGGGYYLDLPGSRQGSAWALRAL [E19W] a recorded protein stability index greater than or equal to 2?
Return: label 0

Enquiry: Could you verify whether the entry YSGGGYYLDLPGSRQGSQEALRAL [A18Q] shows protein stability index of no less than 2?
Return: label 1

Enquiry: Confirm if protein stability index reported for the variant YSGGGYYLDLPGARQGSAEALRAL [S13A] is 2 or above.
Return: label 0

Enquiry: // inclusive: protein stability index at least 2? input: YSGGGYYLALPGSRQGSAEALRAL [D9A]
Return: label 1

Enquiry: Please check the record YSGGGYYLDLPMSRQGSAEALRAL [G12M] and state if its protein stability index is at or above 2.
Return: label 1

Enquiry: Determine whether this variant has protein stability index no lower than 2: VSGGGYYLDLPGSRQGSAEALRAL [Y1V]
Return: label 1

Enquiry: Please check the record YSGGGYYLDLPGSTQGSAEALRAL [R14T] and state if its protein stability index is at or above 2.
Return: label 1

Enquiry: Kindly determine if protein stability index recorded for YSGGGYYLDLPGSRQGSAEAKRAL [L21K] is above or exactly 2.
Return: label 1

Enquiry: Determine whether this variant has protein stability index no lower than 2: YSGGGWYLDLPGSRQGSAEALRAL [Y6W]
Return: label 1

This collection of values is drawn from the supplement of paper PMC10567573.
